Values from patent US12077501B2

test: Lipid clearance: % dose remaining in liver of CD-1 mice; assay type: in vivo; conditions: intravenous, 0.5 mg/kg, CD-1 mouse, Table 8a
This section presents compounds with their documented % Dose Remaining 24 hr values.
The response must be a number in % with no trailing unit.

Quick one: % Dose Remaining 24 hr for CCCCCCCCCN(CCCCCCCCC)CCN(CCCCCCCCC)CC(=O)N1CCN(C(=O)CN(CCCCCCCCC)CC(C)COC(=O)CCCCC)CC1 (stereo not shown) ?
2.33

***
Quick one: % Dose Remaining 24 hr for `CCCCCCCCCN(CCCCCCCCC)CCN(CCCCCCCCC)CC(=O)N1CCN(C(=O)CCCC(=O)OCCCCCCC)CC1` ?
3.25

Same for `CCCCCCCCCCCCCCN(CCCCCCCCCCCC(=O)OC)CCC1CCN(C(=O)CN(CCCCCCCCC)CCN(CCCCCCCCC)CCCCCCCCC)CC1`
6.22
